- System: NCI-H522 lung
- assay-name: NCI tumour cell line growth inhibition, 48 h
measurement-kind: TGI

compound: C/C(=N/NC(N)=S)C(CN(C)C)C(C1=C(O)c2ccccc2OC1)c1ccccc1 (centres undefined)
result: > 100 µM
//
compound: Nc1ccc(-c2ccc(-c3nc4cc(Cl)c(Cl)cc4[nH]3)cc2)cc1
result: > 80.9 µM
//
compound: O=c1c2cc(S(=O)(=O)Nc3c(Cl)cccc3Cl)ccc2ncn1NS(=O)(=O)c1ccc2ccccc2c1
result: > 62.5 µM
//
compound: CC/C(SC)=[N+](\C)[O-]
result: > 62.3 µM

----------
- Tested on: BT-549 breast
- assay-name: NCI tumour cell line growth inhibition, 48 h
Recorded TGI for the following molecules

molecule: NC(CC(=O)O)(Cc1ccccc1)C(=O)O (stereo not drawn)
TGI: > 100 µM

molecule: CCOC(=O)c1cc2cc(C)cc(C(=O)c3ccc([N+](=O)[O-])cc3)c2[nH]1
TGI: > 100 µM

molecule: COc1ccc(C(c2ccc3c(c2)OCO3)N2C(=O)CCC2C(=O)O)cc1 (stereo not drawn)
TGI: > 100 µM

----------
- Test system: SN12C renal
- assay-name: NCI tumour cell line growth inhibition, 48 h
As shown below, each of these compounds has a reported TGI value.

compound: COc1ccc(C2CC(=O)c3c(O)c(OC)c(OC)c(OC)c3O2)cc1O (stereo not drawn)
TGI: > 100 µM
--
compound: Cc1ccccc1NC(=O)c1ccc([N+](=O)[O-])cc1
TGI: > 100 µM
--
compound: Nc1ncnc2c1ncn2C1CC(OC2CCCCO2)C(CO)O1 (stereo not drawn)
TGI: > 100 µM
--
compound: CCN(CC)CCCCC1CCN(CC(=O)N2c3cc(Cl)ccc3NC(=O)CC2C)CC1 (stereo not drawn)
TGI: > 100 µM
--
compound: C[N+](C)(CCO)CCN1c2ccccc2Sc2ccccc21
TGI: > 10 µM
--
compound: Nc1ccccc1C#Cc1ccccc1C#Cc1cnccn1
TGI: 30 µM
--
compound: CCCCCCCCCCCCCCCCCC[N+](C)(C)Cc1ccc(C[N+](C)(C)CCCCCCCCCCCCCCCCCC)cc1
TGI: 30.1 µM
--
compound: C=CCC1C(=O)Nc2cccc3ncn(c23)C1=O (stereo not drawn)
TGI: > 100 µM
--
compound: O=C(C=Nc1ccccc1C(=O)[O-])c1cccs1.O=C(C=Nc1ccccc1C(=O)[O-])c1cccs1.[Zn+2]
TGI: > 10 µM
--
compound: Oc1cccc2c1[nH]c1c(C3=C[C@@]4(O)CC/C=C\CCCCN5CC[C@@H]3[C@]3(CC6/C=C\CCCCN6[C@H]34)C5)nccc12 (stereo partly drawn)
TGI: 2.49 µM
--
compound: OC(CC(O)(C(F)(F)F)C(F)(F)F)C(O)c1ccco1 (stereo not drawn)
TGI: > 10 µM
--
compound: C#Cc1cc(CN(CC(=O)OC(C)(C)C)CC(=O)OC(C)(C)C)nc(CN(CC(=O)OC(C)(C)C)CC(=O)OC(C)(C)C)c1
TGI: > 100 µM
--
compound: Cn1sc2ccccc2c1=S
TGI: 18.2 µM
--
compound: C[C@]12CCC(=O)C=C1CC[C@@H]1[C@@H]2[C@@H](O)C[C@@]2(C)[C@H]1CC[C@]2(O)C(=O)COC(=O)C1CCCC1
TGI: > 100 µM
--
compound: Nc1c2ccccc2nc2ccccc12 (tested in a mixture with another compound)
TGI: 12.2 µM
--
compound: O=c1ccnc(SCc2ccc(Cl)cc2)[nH]1
TGI: > 100 µM
--
compound: CCN(CC)CCCNc1ncc(C)c2c1c1ccc3c(O)cccc3c1n2C
TGI: 14.3 µM
--
compound: CN1N=C2c3ccccc3CC[C@H]2C1c1cccc(O)c1 (stereo partly drawn)
TGI: > 100 µM
--
compound: Cc1c(CC/C(=N\Nc2ccc([N+](=O)[O-])cc2[N+](=O)[O-])c2ccccc2)c2ccccc2n1C
TGI: > 100 µM
--
compound: O=C1C=C2CC[C@H]3[C@@H]4CC[C@H](OC(=O)c5cccc6cc7ccccc7nc56)[C@H]4CC[C@@H]3[C@H]2CC1
TGI: > 100 µM
--
compound: O=C(Cc1ccccc1)NS(=O)(=O)c1ccccc1
TGI: > 100 µM
--
compound: O=S(=O)(Nc1ccccn1)c1ccc(N=Nc2ccc(O)c3ncccc23)cc1
TGI: > 29.8 µM
--
compound: Cc1ccc(C2SCC(=O)N2NC(=O)c2ccncc2)s1 (stereo not drawn)
TGI: > 100 µM
--
compound: CCC1=[N+]([O-])C(C)(C)NC1(C)C
TGI: > 10 µM
--
compound: COc1ccc(C(c2cc3c(cc2O)OCO3)N2CCOCC2)cc1OC (stereo not drawn)
TGI: 22.3 µM
--
compound: CCOCCOC[C@H]1CCCN(c2ccnc3sc(C(N)=O)c(N)c23)C1
TGI: > 100 µM
--
compound: CCOC(=O)c1ccc(N=c2oc3ccc(OC)cc3cc2-c2nc3ccccc3[nH]2)cc1
TGI: > 100 µM
--
compound: CC(C)(C)c1cc(-c2nc3c(F)c(F)c(F)c(F)c3[nH]2)cc(C(C)(C)C)c1O
TGI: > 100 µM
--
compound: CCOC(=O)C(C(=O)OCC)=c1sc(=C(C(=O)OCC)C(=O)OCC)s1
TGI: > 100 µM
--
compound: O=C(NNC(=O)c1nsc2ccccc12)c1ccc(Cl)cc1
TGI: 33.7 µM
--
compound: COc1ccc(C(c2ccc3c(c2)OCO3)N2C(=O)CCC2C(=O)O)cc1 (stereo not drawn)
TGI: > 100 µM
--
compound: Cc1ccc(N2C(=O)C(Cl)=C(Cl)C2=O)cc1
TGI: 33.7 µM
--
compound: COc1ccc(C2C(C=O)C(N3CCN(C)CC3)=Nc3nc4ccccc4n32)cc1 (stereo not drawn)
TGI: 40.9 µM
